# Target System: T1, human GPC3-His protein (human, UniProt P51654 25-559)
# T1 construct: Bought protein; also called human GPC3 protein; not shown: His tag
# Experimental Protocol: ELISA, coated human GPC3, antibody 1 nM;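 note: antigen coated at 1 µg/mL on 96-well plates, antibody bound for 2 h at 37 °C, detected with HRP-labeled secondary antibody and TMB, absorbance read at 450 nm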
Value Type: OD450 nm (OD450)
Answers are plain numbers, in OD450.

Solved entries:
Task: Entry F3.54.12 human-murine chimeric antibody (antibody, human IgG1, kappa, V domains shown) VH: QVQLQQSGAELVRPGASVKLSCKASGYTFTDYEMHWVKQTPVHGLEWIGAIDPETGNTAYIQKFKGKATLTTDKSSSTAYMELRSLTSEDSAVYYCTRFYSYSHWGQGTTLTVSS VL: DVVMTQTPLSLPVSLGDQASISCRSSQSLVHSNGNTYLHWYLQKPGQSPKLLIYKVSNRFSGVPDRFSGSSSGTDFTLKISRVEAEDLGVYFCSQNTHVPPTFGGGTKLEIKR has what OD450 nm?
Result: 2.29

Task: Try the binder F4.21.16 human-murine chimeric antibody (antibody, human IgG1, kappa, V domains shown) VH: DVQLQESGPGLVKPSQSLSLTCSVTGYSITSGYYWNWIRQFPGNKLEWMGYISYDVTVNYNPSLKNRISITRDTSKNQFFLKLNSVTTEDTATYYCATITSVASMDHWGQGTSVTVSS VL: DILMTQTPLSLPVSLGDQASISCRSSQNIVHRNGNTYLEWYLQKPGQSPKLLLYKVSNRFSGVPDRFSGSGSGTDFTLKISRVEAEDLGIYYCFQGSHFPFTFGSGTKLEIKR
Result: 1.37

Could you now look at the following binder, please?
Task: Entry F4.13.7 human-murine chimeric antibody (antibody, human IgG1, kappa, V domains shown) VH: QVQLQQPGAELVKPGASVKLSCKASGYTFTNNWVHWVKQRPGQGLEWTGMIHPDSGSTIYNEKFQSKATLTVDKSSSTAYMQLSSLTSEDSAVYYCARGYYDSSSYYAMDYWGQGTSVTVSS VL: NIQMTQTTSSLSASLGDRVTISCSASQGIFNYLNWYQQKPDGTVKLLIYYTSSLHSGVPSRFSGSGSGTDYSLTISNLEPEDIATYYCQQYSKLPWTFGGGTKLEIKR has what OD450 nm?
Result: 2.28
